The values you see were collected from PubChem BioAssay (NCI).

Test system: NCI-H460 lung
Run description: NCI-60 one-dose screen, 48 h (100 = growth as untreated, 0 = no growth, -100 = all killed)
Assay context: 10 µM unless noted
The panel holds about 83,000 compounds, 20% with a hit somewhere; the sample as a whole holds those more often.
Result type: growth (%)
Numbers only, in %.

Consider the worked cases shown below.
>  <Compound>
CC(C)CCC1(CCO)C(=O)NC(=S)NC1=O

>  <Result type>
growth

>  <Measurement unit>
%

>  <Numeric result>
109

$$$$
>  <Compound>
Cc1ccc(N)cc1[As]=[As]c1cc(N)ccc1C (configuration not stated)

>  <Result type>
growth

>  <Measurement unit>
%

>  <Numeric result>
60.4

$$$$
>  <Compound>
COc1cc(C2CC(=O)Nc3nc(N)[se]c32)c(OC)c2c1OCO2 (configuration not stated)

>  <Result type>
growth

>  <Measurement unit>
%

>  <Numeric result>
23.9

$$$$

Provide growth values for the following items, in order.
1. N#CC1c2ccccc2C=CN1C(=O)c1ccc(N(CCCl)CCCl)cc1 (configuration not stated)
2. CC(C)OC(=S)[S-].[Au+].c1ccc([PH+](c2ccccc2)c2ccccc2)cc1

Result block:
111
79.5

Provide growth values for the following items, in order.
1. O=C(c1cccs1)C1NO[N+]([O-])=C1c1cccs1 (configuration not stated)
2. O=C(O)C1[O][Sb][O]C1C(=O)O (configuration not stated)
3. n1nc(-c2nonc2-c2nn[nH]n2)n[nH]1
4. COc1cc(/C=C\c2cc(OC)c(OC)c(OC)c2)cc(N/C=C\C(=O)c2ccc(OC(F)(F)F)cc2)c1OC

Result block:
[82.3, 108, 109, 4.92]

Provide growth values for the following items, in order.
1. O=S(=O)(c1ccc(Cl)cc1)C(Cl)(Cl)Cl
2. C[C@@H]1CC[C@@H]2[C@@H]1[C@H](OC(=O)/C=C/C1CCCCC1)[C@]1(C3CCCCC3)C[C@@H](OC(=O)CO)[C@@]2(C)O1
3. N#C[Se]CCN1C(=O)C2C(C1=O)[C@H]1C=C[C@@H]2S1 (some centres not stated)

Result block:
1: 80.4; 2: 64.2; 3: 2.86

----------
Test system: HL-60(TB) leukemia
Run description: NCI-60 one-dose screen, 48 h
Assay context: 10 µM unless noted
About 83,000 compounds went through this panel and 20% of them were active in at least one assay; those are over-represented in the sample as a whole. Activity calls are given as the source filed them. The calls were made as follows: active = growth percent below 10; inactive = the rest.
API: response.call in 1.0 = active, 0.0 = inactive

# example entries with known answers
>  <Compound>
Brc1ccc(Cn2nnnc2-c2ccn(-c3ccccc3)n2)cc1

>  <Label class>
0.0

$$$$
>  <Compound>
COc1ccc(/C(C#N)=C/c2cccc(OC)c2OC)cc1

>  <Label class>
0.0

$$$$
>  <Compound>
CCN1C(=O)CC(SC2CC(=O)N(CC)C2=O)C1=O (stereo not given)

>  <Label class>
0.0

$$$$
>  <Compound>
CCNCc1ccc(O)c2ncccc12

>  <Label class>
0.0

$$$$
>  <Compound>
Nc1c2ccccc2nc2ccccc12 (tested in a mixture with another compound)

>  <Label class>
0.0

$$$$
>  <Compound>
COc1ccc(-c2cc(C#N)c(NNC(C)=O)[nH]2)cc1

>  <Label class>
0.0

$$$$
>  <Compound>
CC[C@H](Nc1ncnc2nc[nH]c12)c1nc2cccc(NCc3ccc(C(=O)NO)nc3)c2c(=O)n1-c1ccccc1

>  <Label class>
0.0

$$$$
>  <Compound>
C#CCOc1ccc2nc(CCl)c(Cl)c(Nc3cccc(C(F)(F)F)c3)c2c1

>  <Label class>
0.0

$$$$

Query block: What did this assay record as the result for COc1ccc(C2CC(c3ccc(OC)cc3OC)=NN2c2ccc(S(N)(=O)=O)cc2)cc1 (stereo not given) ?
Result block: 0.0

Query block: And then Clc1ccc(C2CC(c3cccc(Nc4ccncc4)c3)=NN2c2ccc(Cl)cc2)cc1 (stereo not given) , what is it?
Result block: 1.0

----------
Task for the reader: assign each of the following compounds its reported growth.
Test system: HL-60(TB) leukemia
Run description: NCI-60 one-dose screen, 48 h (100 = growth as untreated, 0 = no growth, -100 = all killed)
Assay context: 10 µM unless noted
This is part of a sample that, as a whole, favours compounds with a hit. Of some 83,000 tested, about 20% had one in any assay.
One number for each entry, in %.

Consider the worked cases shown below.
>  <Compound>
CCc1nnc(NC(=O)c2nnn(-c3ccccc3)c2-c2ccco2)s1

>  <growth [%]>
79.9

$$$$
>  <Compound>
COc1ccc(/C(=N\O)c2cc(C)c(OC)c(C)c2)cc1O

>  <growth [%]>
-18.3

$$$$
>  <Compound>
O=C(Nc1ccc(NS(=O)(=O)c2ccc(F)cc2)cc1)C12CC3CC(CC(C3)C1)C2

>  <growth [%]>
96.1

$$$$
>  <Compound>
Cn1cc(-c2nonc2-c2cn(C)c3ccc(F)cc23)c2cc(F)ccc21

>  <growth [%]>
17.3

$$$$
>  <Compound>
O=C1OC(Oc2ccc(Br)cc2)(c2ccccc2)c2ccccc21 (centres undefined)

>  <growth [%]>
120

$$$$

Provide growth values for the following items, in order.
1. CCOP(=O)(OCC)Oc1ccc(Sc2ccc(OP(=O)(OCC)OCC)cc2)cc1
2. Cc1cc(O)c(C(C)C)cc1N=O
3. Cc1c(O)c(=O)n(-c2ccccc2)n1C
4. CN1CCN(Cc2ccc(NC(=O)c3ccc(C#Cc4c(N)ncc5ccc(F)cc45)cc3)cc2C(F)(F)F)CC1

Result block:
1: 96; 2: 66.1; 3: 119; 4: -10.7

----------
Test system: HL-60(TB) leukemia
Run description: NCI-60 one-dose screen, 48 h
Assay context: 10 µM unless noted
This is part of a sample that, as a whole, favours compounds with a hit. Of some 83,000 tested, about 20% had one in any assay. Activity calls are given as the source filed them. Rule for the calls: active = growth percent below 10; inactive = the rest.
API: response.call in active, inactive

>  <Sample smiles>
Cn1ccnc1C(=O)/C=C/c1ccc(C(=O)Nc2ccc(S(F)(F)(F)(F)F)cc2)cc1

>  <Label class>
active

$$$$
>  <Sample smiles>
COc1cc(/C=C/C(=O)c2ccc(-n3cc(CN4CCN(c5cc6c(cc5F)c(=O)c(C(=O)O)cn6C5CC5)CC4)nn3)cc2)ccc1O

>  <Label class>
inactive

$$$$
>  <Sample smiles>
COc1cc(F)c(-c2nc3c(C)cccc3n2Cc2c(F)cccc2F)c(F)c1

>  <Label class>
inactive

$$$$

Okay, now this compound:
Query block: What did this assay record as the result for "COc1ccc(/C=C(/C(=O)N2CCN(c3ccccc3)CC2)c2cc(OC)c(OC)c(OC)c2)cc1O" ?
Result block: active

----------
Tested on: IGROV1 ovarian
Run description: NCI-60 one-dose screen, 48 h (100 = growth as untreated, 0 = no growth, -100 = all killed)
Assay context: 10 µM
About 83,000 compounds went through this panel and 20% of them were active in at least one assay; those are over-represented in the sample as a whole. Activity calls are given as the source filed them. How the source made its calls: active means growth percent below 10; inactive means the rest.
Task for the reader: assign each of the following molecules its reported growth.

Consider the worked cases shown below.
>  <Molecule>
CCCCn1cc(C(=O)/C(C#N)=C/c2cc3ccccc3nc2Cl)c2cc(OC)ccc21

>  <growth>
61.2% (inactive)

$$$$
>  <Molecule>
O=C1NC2(CCNCC2)Nc2ccccc21

>  <growth>
113% (inactive)

$$$$
>  <Molecule>
[Br][Pb]([c]1ccccc1)([c]1ccccc1)[c]1ccccc1

>  <growth>
-50.9% (active)

$$$$
>  <Molecule>
N#C[Se]CCN1C(=O)C2C(C1=O)[C@H]1C=C[C@@H]2S1 (stereo not given in full)

>  <growth>
-54.4% (active)

$$$$
>  <Molecule>
COP(=S)(OC)Oc1ccc(SC)c(C)c1

>  <growth>
99.7% (inactive)

$$$$

Provide growth values for the following items, in order.
1. O=C(/C=C/c1ccccc1)N[C@@H](CO)Cc1cnc[nH]1
2. c1ccc(CCN2CCCCC2Cc2ccccc2)cc1 (stereo not given)
3. CC1(C)N=C(N)N=C(N)N1c1cccc(C(=O)Nc2cccc(S(=O)(=O)F)c2)c1
4. CCOc1cc(C=C(C#N)C#N)cc(Br)c1O
5. CCC1([N+](=O)[O-])COP(=O)(NCc2cccnc2)OC1 (stereo not given)
6. CC(C)(O)/C=C/C(=O)[C@](C)(O)[C@H]1[C@H](O)C[C@@]2(C)[C@@H]3CC=C4[C@@H](C=C(O)C(=O)C4(C)C)[C@]3(C)C(=O)C[C@]12C
7. Cc1ccc(C(=O)C2CN(C)CCC2(O)c2ccc(C)cc2)cc1 (stereo not given)
8. O=C(O)CC(Br)C(=O)CBr (stereo not given)

Result block:
1. 92.9% (inactive)
2. 92.5% (inactive)
3. 105% (inactive)
4. 109% (inactive)
5. 118% (inactive)
6. -70.3% (active)
7. 124% (inactive)
8. 109% (inactive)

Provide growth values for the following items, in order.
1. COc1ccc(/C=C\c2cc(OC)c(OC)c(OC)c2)cc1N/C=C\C(=O)c1c[nH]c2ccccc12
2. Nc1ccc(N)c2c1Oc1ccccc1O2
3. CC12CCC3C(CC=C4CC(O)CCC43C)C1C/C(=C\N1CCOCC1)C2=O (stereo not given)
4. S=P(NC1CCCCC1)(N1CC1)N1CC1
5. CNC(=O)O/N=C(/C)c1ccc(Cl)cc1
6. C=CCN1C(=O)C(CC)(CCC(C)C)C(=O)NC1=S (stereo not given)
7. Oc1ccc(O)c2c1C1(Cl)C(Cl)=C(Cl)C2(Cl)C1(Cl)Cl

Result block:
["21.8% (inactive)", "6.91% (active)", "119% (inactive)", "97.3% (inactive)", "101% (inactive)", "108% (inactive)", "38.3% (inactive)"]
